Recorded values, source patent US12391686B2.

# STUDY TARGET: Nanoluciferase-BRD9 fusion protein (3×FLAG-NLuc-BRD9) in SYO-1 cells (Homo sapiens, UniProt Q9H8M2)
# Construct: expressed in transfected cells; host or cells: SYO-1
# Sequence (Q9H8M2 whole entry, the tested form may be a part): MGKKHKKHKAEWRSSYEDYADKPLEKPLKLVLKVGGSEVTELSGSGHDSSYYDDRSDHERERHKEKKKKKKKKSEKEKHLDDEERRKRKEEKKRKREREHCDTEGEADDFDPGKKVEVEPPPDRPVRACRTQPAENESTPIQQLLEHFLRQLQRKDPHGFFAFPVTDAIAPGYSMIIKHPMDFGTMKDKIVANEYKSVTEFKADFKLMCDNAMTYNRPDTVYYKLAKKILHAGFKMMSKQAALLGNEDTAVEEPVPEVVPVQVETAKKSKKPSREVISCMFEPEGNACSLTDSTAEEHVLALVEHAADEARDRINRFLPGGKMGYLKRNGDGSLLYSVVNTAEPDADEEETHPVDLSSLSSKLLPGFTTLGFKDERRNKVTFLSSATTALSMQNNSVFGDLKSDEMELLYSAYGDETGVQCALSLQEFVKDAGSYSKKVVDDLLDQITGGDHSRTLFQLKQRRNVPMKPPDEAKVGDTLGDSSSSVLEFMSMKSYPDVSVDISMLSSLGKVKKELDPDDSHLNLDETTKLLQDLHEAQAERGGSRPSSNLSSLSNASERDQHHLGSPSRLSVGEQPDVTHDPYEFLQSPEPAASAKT
# MEASUREMENT DESCRIPTION: SYO1 BRD9 NanoLuc Degradation Assay
# Format: cell-based
# EXPERIMENTAL CONDITIONS: Table 6C; SYO-1 cells expressing 3×FLAG-NLuc-BRD9, 6 hours incubation, 1 μM top dose; read-out: SYO1 BRD9-NanoLuc degradation IC50
# Procedure: Procedure: A stable SYO-1 cell line expressing 3×FLAG-NLuc-BRD9 was generated. On day 0 cells were seeded in 30 μL media into each well of 384-well cell culture plates. The seeding density was 8000 cells/well. […] Nanoluciferase activity was measured by adding 15 μL of freshly prepared Nano-Glo Luciferase Assay Reagent (Promega N1130), shaking the plates for 10 minutes and reading the bioluminescence using an EnVision reader. […]
Below is a list of entries, each paired with its recorded DC50 value.

| COMPOUND | DC50 |
| --- | --- |
| COc1cc(-c2cn(C)c(=O)c3cnc(C4CC4)cc23)cc(OC)c1CN1CCC(C#Cc2ccc3c(c2)C(=O)N(C2CCC(=O)NC2=O)C3=O)CC1 (stereo not drawn) | < 0.01 µM |
| COc1cc(-c2cn(C)c(=O)c3cnc(N(C)C)cc23)cc(OC)c1CN1CCN(c2ccc3c(c2)C(=O)N(C2CCC(=O)NC2=O)C3)CC1(C)C (stereo not drawn) | < 0.01 µM |
| COc1cc(-c2cn(C)c(=O)c3cnc(N4CCOCC4)cc23)cc(OC)c1CN1CC(Oc2ccc3c(c2)CN(C2CCC(=O)NC2=O)C3=O)C1 (stereo not drawn) | < 0.01 µM |
